compounds and their reported log10(IC50)
Biological target: EP2 (Homo sapiens, UniProt P43116)
Construct: SF295 glioblastoma cells express high endogenous EP2 and no EP4
Sequence (P43116 whole entry): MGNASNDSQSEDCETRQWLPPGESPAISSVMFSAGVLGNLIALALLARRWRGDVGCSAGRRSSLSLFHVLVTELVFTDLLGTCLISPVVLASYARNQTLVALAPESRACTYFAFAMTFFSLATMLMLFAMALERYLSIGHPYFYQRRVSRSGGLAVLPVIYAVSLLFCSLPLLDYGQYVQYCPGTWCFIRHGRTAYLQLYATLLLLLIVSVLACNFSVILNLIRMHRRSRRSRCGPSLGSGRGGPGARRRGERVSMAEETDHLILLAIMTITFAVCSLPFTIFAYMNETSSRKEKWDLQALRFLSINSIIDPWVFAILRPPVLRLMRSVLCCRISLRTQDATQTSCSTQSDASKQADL
Assay: hEP2 cAMP Assay (SF295 glioblastoma cells, HTRF cAMP, PGE2 75 nM)
Conditions: antagonistic activity, PGE2 75 nM (EC80)
Reported endpoint: log10(IC50) (log10 of the value in µM)

[[record]]
compound = "CCOc1cc(-c2cc(NCCc3cccc4cc(C)oc34)ncn2)ccc1OCC(=O)O [Example 75]"
reported_endpoint = "log10(IC50)"
reported_measurement = -0.01

[[record]]
compound = "CCOc1cc(-c2cc(NCCc3cccc4c(C)cccc34)ncn2)ccc1CC(=O)O [Example 164]"
reported_endpoint = "log10(IC50)"
reported_measurement = -0.89

[[record]]
compound = "CCOc1cc(-c2cc(NCCc3ccc(F)c4ccccc34)ncn2)ccc1C(=O)O [Example 19]"
reported_endpoint = "log10(IC50)"
reported_measurement = -1.03

[[record]]
compound = "CCOc1cc(-c2cc(NCCc3c(C)c(C)cc4ccccc34)ncn2)sc1C(=O)O [Example 12]"
reported_endpoint = "log10(IC50)"
reported_measurement = -1.77

[[record]]
compound = "CCOc1cc(-c2cc(NCCc3ccc(C(F)F)c4ccccc34)ncn2)sc1C(=O)O [Example 72]"
reported_endpoint = "log10(IC50)"
reported_measurement = -1.30

[[record]]
compound = "CCOc1cc(-c2cc(NCCc3cccc4cc[nH]c34)ncn2)sc1C(=O)O [Example 46]"
reported_endpoint = "log10(IC50)"
reported_measurement = -1.07

[[record]]
compound = "CCOc1cc(-c2cc(NCCc3ccc(OC)c4ccccc34)ncn2)sc1-c1noc(=O)[nH]1 [Example 141]"
reported_endpoint = "log10(IC50)"
reported_measurement = -1.14

[[record]]
compound = "COc1ccc2ccccc2c1CCNc1cc(-c2ccc(C(=O)O)c(OC3CCC3)c2)ncn1 [Example 5]"
reported_endpoint = "log10(IC50)"
reported_measurement = -1.62

[[record]]
compound = "CCOc1cc(-c2cc(NCCc3c(F)ccc4ccccc34)ncn2)ccc1C(=O)O [Example 93]"
reported_endpoint = "log10(IC50)"
reported_measurement = -1.44

[[record]]
compound = "CCOc1cc(-c2cc(NCCc3c(C)ccc4ncccc34)ncn2)sc1C(=O)O [Example 2]"
reported_endpoint = "log10(IC50)"
reported_measurement = -1.33

[[record]]
compound = "CCOc1cc(-c2cc(NCCc3cccc4ccccc34)ncn2)ccc1OCC(=O)O [Example 77]"
reported_endpoint = "log10(IC50)"
reported_measurement = -0.38

[[record]]
compound = "CCOc1cc(-c2cc(NCCc3cccc4ccccc34)ncn2)sc1C(=O)O [Example 9]"
reported_endpoint = "log10(IC50)"
reported_measurement = -2.05


---

Target: PTGER2 (EP2) (Homo sapiens, UniProt P43116)
Sequence (P43116 whole entry): as above
Assay: hEP2 b-Arrestin Assay (PathHunter HEK 293 PTGER2 b-arrestin cells, PGE2 5 μM)
Conditions: antagonistic activity, beta-arrestin assay, HEK 293 PTGER2 cells, PGE2 5 μM (EC80); read-out: hEP2 b-arr IC50
pIC50: −log10 of the molar value.
molecules and their reported pIC50
Reported endpoint: pIC50

[[record]]
smiles_str = "CCOc1cc(-c2cc(NCCc3cccc4[nH]ccc34)ncn2)sc1C(=O)O"
reported_endpoint = "pIC50"
reported_measurement = 7.09

[[record]]
smiles_str = "CCOc1cc(-c2cc(NCCc3c(OC)ccc4ccccc34)ncn2)ccc1-c1nnn[nH]1"
reported_endpoint = "pIC50"
reported_measurement = 8.10

[[record]]
smiles_str = "CCOc1cc(-c2cc(NCCc3c(C)ccc4ccccc34)ncn2)sc1C(=O)O"
reported_endpoint = "pIC50"
reported_measurement = 8.30

[[record]]
smiles_str = "CCOc1cc(-c2cc(NCCc3cccc4cc(C)oc34)ncn2)sc1C(=O)O"
reported_endpoint = "pIC50"
reported_measurement = 6.67

[[record]]
smiles_str = "CCOc1nc(-c2cc(NCCc3c(OC)ccc4ccccc34)ncn2)sc1-c1noc(=O)[nH]1"
reported_endpoint = "pIC50"
reported_measurement = 8.30

[[record]]
smiles_str = "CCOc1cc(-c2cc(NCCc3cccc4ccncc34)ncn2)sc1-c1noc(=O)[nH]1"
reported_endpoint = "pIC50"
reported_measurement = 6.73

[[record]]
smiles_str = "CSc1cc(-c2cc(NCCc3cc(F)cc4ccccc34)ncn2)ccc1C(=O)O"
reported_endpoint = "pIC50"
reported_measurement = 6.85

[[record]]
smiles_str = "CCOc1cc(-c2cc(NCCc3c(C)ccc4ncccc34)ncn2)sc1C(=O)O"
reported_endpoint = "pIC50"
reported_measurement = 7.57

[[record]]
smiles_str = "CCOc1cc(-c2cc(NCCc3cccc4c(C)c(C)n(C)c34)ncn2)sc1C(=O)O"
reported_endpoint = "pIC50"
reported_measurement = 6.62

[[record]]
smiles_str = "CCOc1cc(-c2cc(NCCc3c(C)ccc4c3cnn4C)ncn2)sc1C(=O)O"
reported_endpoint = "pIC50"
reported_measurement = 7.44

[[record]]
smiles_str = "CCOc1cc(-c2cc(NCCc3cccc4ccsc34)ncn2)sc1C(=O)O"
reported_endpoint = "pIC50"
reported_measurement = 7.48

[[record]]
smiles_str = "CCOc1cc(-c2cc(NCCc3c(OC)ccc4ccccc34)ncn2)ccc1-c1noc(=S)[nH]1"
reported_endpoint = "pIC50"
reported_measurement = 8.30

[[record]]
smiles_str = "CCOc1cc(-c2cc(NCCc3c(C)ccc4cnccc34)ncn2)sc1C(=O)O"
reported_endpoint = "pIC50"
reported_measurement = 7.52

[[record]]
smiles_str = "Cc1ccc2c(cnn2C)c1CCNc1cc(-c2ccc3ncccc3c2)ncn1"
reported_endpoint = "pIC50"
reported_measurement = 6.65

[[record]]
smiles_str = "COc1ccc2ncccc2c1CCNc1cc(-c2ccc(C(=O)O)c(OC3CCC3)c2)ncn1"
reported_endpoint = "pIC50"
reported_measurement = 6.97

[[record]]
smiles_str = "CCOc1cc(-c2cc(NCCc3c(OC)ccc4ncccc34)ncn2)ccc1O"
reported_endpoint = "pIC50"
reported_measurement = 7.44

[[record]]
smiles_str = "CSc1cc(-c2cc(NCCc3ccc(Br)c4ccccc34)ncn2)ccc1C(=O)O"
reported_endpoint = "pIC50"
reported_measurement = 7.17

[[record]]
smiles_str = "CCSc1cc(-c2cc(NCCc3ccc(C)c4ccccc34)ncn2)ccc1C(=O)O"
reported_endpoint = "pIC50"
reported_measurement = 6.88

[[record]]
smiles_str = "COc1ccc2sccc2c1CCNc1cc(-c2ccc(C(=O)O)c(SC)c2)ncn1"
reported_endpoint = "pIC50"
reported_measurement = 8.10

[[record]]
smiles_str = "CCOc1cc(-c2cc(NCCc3c(OC)ccc4ccccc34)ncn2)sc1C(=O)NS(N)(=O)=O"
reported_endpoint = "pIC50"
reported_measurement = 8.30

[[record]]
smiles_str = "CCOc1cc(-c2cc(NCCc3c(C#N)ccc4ccccc34)ncn2)ccc1C(=O)O"
reported_endpoint = "pIC50"
reported_measurement = 7.54

